- Test system: HEK293
- Assay Summary: Cytotoxic Profiling of Annotated Libraries Using Quantitative High-Throughput Screening (AID 1296008); further: nearly all actives have a fitted effect of over 60% in size
- Condition Summary: Five cell lines viability, CellTiter-Glo ATP luminescence, 48-72 h
Inconclusive results are not listed. Calls of active or inactive are those of the source. The call rests on the fitted dose curve; in most records, active means well fitted inhibition curve with a large enough effect; inconclusive means small, poorly fitted or top-dose-only effect; inactive means flat fitted curve, though single readings scatter.
Outcomes: true (1) (active), false (0) (inactive)

{"Record Smiles": "Cc1[nH]cnc1-c1ccc(Cl)cc1", "Answer Label": "false (0)"}
{"Record Smiles": "C[C@@]12CCC[C@H]1[C@@H]1CC[C@H]3C[C@@H](O)CC[C@]3(C)[C@H]1CC2", "Answer Label": "false (0)"}
{"Record Smiles": "O=C1Nc2cc(Cl)ccc2Oc2ccccc21", "Answer Label": "false (0)"}
{"Record Smiles": "C[C@H]1C[C@@H]2[C@H]([C@@H](O)C[C@@]3(C)[C@H]2CC[C@]3(O)C(=O)CO)[C@@]2(C)C=CC(=O)C=C12", "Answer Label": "false (0)"}
{"Record Smiles": "Cc1nc2n(c(=O)c1CCN1CCC(C(=O)c3ccc(F)cc3)CC1)CCS2", "Answer Label": "true (1)"}
{"Record Smiles": "Cc1ncc([N+](=O)[O-])n1C", "Answer Label": "false (0)"}

Provenance of the data: PubChem BioAssay (NCATS)
